Attribute: AC50
MEASUREMENT_TARGET: human Norepinephrine Transporter (NET), SLC6A2 (gene 6530) (UniProt P23975)
Sequence (P23975 whole entry, looked up): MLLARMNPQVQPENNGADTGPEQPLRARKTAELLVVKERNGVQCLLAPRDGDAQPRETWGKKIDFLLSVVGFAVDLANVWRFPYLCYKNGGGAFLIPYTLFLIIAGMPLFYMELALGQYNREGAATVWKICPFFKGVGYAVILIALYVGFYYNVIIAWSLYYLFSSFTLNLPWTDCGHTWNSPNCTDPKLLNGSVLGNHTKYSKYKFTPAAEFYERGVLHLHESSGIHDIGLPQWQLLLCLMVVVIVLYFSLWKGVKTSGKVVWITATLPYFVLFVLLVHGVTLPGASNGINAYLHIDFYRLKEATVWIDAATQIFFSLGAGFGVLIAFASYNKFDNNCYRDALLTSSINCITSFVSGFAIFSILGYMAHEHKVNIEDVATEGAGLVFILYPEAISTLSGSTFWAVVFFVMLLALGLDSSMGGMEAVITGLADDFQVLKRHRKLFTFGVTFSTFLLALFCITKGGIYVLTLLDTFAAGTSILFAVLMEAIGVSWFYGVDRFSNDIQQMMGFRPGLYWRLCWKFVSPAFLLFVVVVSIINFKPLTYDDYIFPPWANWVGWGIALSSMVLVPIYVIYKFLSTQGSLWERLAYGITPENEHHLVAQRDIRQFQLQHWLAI
ASSAY_REMARKS: NVS_TR_hNET: NovaScreen (NVS) Transporter Assay for human Norepinephrine Transporter (NET) (AID 2283377);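 note: cell-free membrane protein extracted from CHO cells expressing human NET; displacement of radioligand from human NET seen as loss of scintillation signal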
Inconclusive results are not listed. Activity calls are given as the source filed them. Rule for the calls: active = hit-call score of the fitted dose curve at least 0.9, where 1 is the maximum; inconclusive = response in the unintended direction; inactive = score below 0.9.

{"COMPOUND": "Cc1c(COC(=O)[C@@H]2[C@H](/C=C(\\Cl)C(F)(F)F)C2(C)C)cccc1-c1ccccc1", "AC50": "0.345 µM (active)"}
{"COMPOUND": "C=C(C)CN(CC)c1c([N+](=O)[O-])cc(C(F)(F)F)cc1[N+](=O)[O-]", "AC50": "7.07 µM (active)"}
{"COMPOUND": "O=P(O)(O)CCCl", "AC50": "10.6 µM (active)"}
{"COMPOUND": "Cn1c(-c2ccccc2)cc(-c2ccccc2)[n+]1C", "AC50": "2.75 µM (active)"}
{"COMPOUND": "CCCCC(O)(Cn1cncn1)c1ccc(Cl)cc1Cl (configuration not stated)", "AC50": "13.3 µM (active)"}
{"COMPOUND": "CC1(C)C(C=C(Cl)Cl)C1C(=O)OC(C#N)c1cccc(Oc2ccccc2)c1 (configuration not stated)", "AC50": "12.2 µM (active)"}
{"COMPOUND": "CC(C)N1C(=O)c2ccccc2NS1(=O)=O", "AC50": "14.2 µM (active)"}

---

MEASUREMENT_TARGET: Hypoxia-inducible factor 1-alpha (Homo sapiens)
ASSAY_REMARKS: ATG_HIF1a_CIS: Attagene CIS-FACTORIAL HepG2 Assay for human Hypoxia Inducible Factor 1 (HIF1A) (AID 2282951)
MEASUREMENT_PARAMETERS: HepG2 Attagene cis-factorial HIF1a reporter transcription; actives raise or lower the signal
Calls of active or inactive are those of the source. How the source made its calls: active means hit-call score of the fitted dose curve at least 0.9, where 1 is the maximum; inactive means score below 0.9.
Classes used: y = active, n = inactive

{"MOLECULE": "N#CN=C1SCCN1Cc1ccc(Cl)nc1", "MEASUREMENT_TARGET": "Hypoxia-inducible factor 1-alpha (Homo sapiens)", "LABEL": "n"}
{"MOLECULE": "CCCN(CC)CC1COC2(CCC(C(C)(C)C)CC2)O1 (configuration not stated)", "MEASUREMENT_TARGET": "Hypoxia-inducible factor 1-alpha (Homo sapiens)", "LABEL": "y"}
{"MOLECULE": "COCC(=O)N(c1c(C)cccc1C)C(C)C(=O)OC (configuration not stated)", "MEASUREMENT_TARGET": "Hypoxia-inducible factor 1-alpha (Homo sapiens)", "LABEL": "n"}
{"MOLECULE": "CCNP(=S)(OC)O/C(C)=C/C(=O)OC(C)C (configuration not stated)", "MEASUREMENT_TARGET": "Hypoxia-inducible factor 1-alpha (Homo sapiens)", "LABEL": "n"}
{"MOLECULE": "COc1cc(Cl)c(OC)cc1Cl", "MEASUREMENT_TARGET": "Hypoxia-inducible factor 1-alpha (Homo sapiens)", "LABEL": "n"}
{"MOLECULE": "OC(c1ccc(Cl)cc1)(c1ccc(Cl)cc1)C(Cl)(Cl)Cl", "MEASUREMENT_TARGET": "Hypoxia-inducible factor 1-alpha (Homo sapiens)", "LABEL": "n"}
{"MOLECULE": "CC(C)N1C(=O)c2ccccc2NS1(=O)=O", "MEASUREMENT_TARGET": "Hypoxia-inducible factor 1-alpha (Homo sapiens)", "LABEL": "n"}

---

ASSAY_REMARKS: BSK_3C_TissueFactor: BioMAP Diversity Plus: 3C Assay for Tissue Factor Biomarker Activity (AID 2282997)
MEASUREMENT_PARAMETERS: BioMAP 3C HUVEC, tissue factor biomarker readout; actives raise or lower the signal
Calls of active or inactive are those of the source. The calls were made as follows: active = hit-call score of the fitted dose curve at least 0.9, where 1 is the maximum; inactive = score below 0.9.

{"MOLECULE": "COC(=O)N(C(=O)N1CO[C@@]2(C(=O)OC)Cc3cc(Cl)ccc3C2=N1)c1ccc(OC(F)(F)F)cc1", "AC50": "inactive"}
{"MOLECULE": "COCC(=O)N(c1c(C)cccc1C)C(C)C(=O)OC (stereo not given)", "AC50": "inactive"}
{"MOLECULE": "CCCN(CC)CC1COC2(CCC(C(C)(C)C)CC2)O1 (stereo not given)", "AC50": "inactive"}
{"MOLECULE": "CC(C)C1(C)N=C(c2ncccc2C(=O)O)NC1=O (stereo not given)", "AC50": "inactive"}
{"MOLECULE": "COP(=O)(OC)O/C(C)=C/C(=O)N(C)C", "AC50": "inactive"}
{"MOLECULE": "CCOP(=S)(OCC)Oc1nc(Cl)n(C(C)C)n1", "AC50": "inactive"}
{"MOLECULE": "COCC(C)N(C(=O)CCl)c1c(C)csc1C (stereo not given)", "AC50": "inactive"}
{"MOLECULE": "CC1(C)C(C=C(Cl)Cl)C1C(=O)OC(C#N)c1cccc(Oc2ccccc2)c1 (stereo not given)", "AC50": "inactive"}
{"MOLECULE": "Cn1c(-c2ccccc2)cc(-c2ccccc2)[n+]1C", "AC50": "inactive"}
{"MOLECULE": "CNC(=O)N(C)c1nnc(C(C)(C)C)s1", "AC50": "inactive"}
{"MOLECULE": "CC(C)NC(=O)N1CC(=O)N(c2cc(Cl)cc(Cl)c2)C1=O", "AC50": "inactive"}
{"MOLECULE": "Clc1cccc(C(Cl)(Cl)Cl)n1", "AC50": "inactive"}
{"MOLECULE": "CCCC(=NOCC)C1=C(O)CC(CC(C)SCC)CC1=O (stereo not given)", "AC50": "inactive"}
{"MOLECULE": "CC1(C)C(C(=O)OC(C#N)c2cccc(Oc3ccccc3)c2)C1(C)C (stereo not given)", "AC50": "inactive"}
{"MOLECULE": "Nc1cnn(-c2ccccc2)c(=O)c1Cl", "AC50": "inactive"}
{"MOLECULE": "CC(C)N1C(=O)N(c2ccccc2)CSC1=NC(C)(C)C", "AC50": "22.9 µM (active)"}
{"MOLECULE": "CCNP(=S)(OC)O/C(C)=C/C(=O)OC(C)C (stereo not given)", "AC50": "inactive"}
{"MOLECULE": "COC(=O)NC(=S)Nc1ccccc1NC(=S)NC(=O)OC", "AC50": "inactive"}
{"MOLECULE": "CC(C)(C)C(=O)C(Oc1ccc(Cl)cc1)n1cncn1 (stereo not given)", "AC50": "inactive"}
{"MOLECULE": "OC(c1ccc(Cl)cc1)(c1ccc(Cl)cc1)C(Cl)(Cl)Cl", "AC50": "25.6 µM (active)"}
{"MOLECULE": "Cc1cc(C)nc(Nc2ccccc2)n1", "AC50": "inactive"}
{"MOLECULE": "N#Cc1c(Cl)cccc1Cl", "AC50": "inactive"}
{"MOLECULE": "CS(=O)(=O)c1cc(C(F)(F)F)ccc1C(=O)c1cnoc1C1CC1", "AC50": "inactive"}
{"MOLECULE": "CCCCC(O)(Cn1cncn1)c1ccc(Cl)cc1Cl (stereo not given)", "AC50": "inactive"}
{"MOLECULE": "COCc1cnc(C2=NC(C)(C(C)C)C(=O)N2)c(C(=O)O)c1 (stereo not given)", "AC50": "inactive"}

---

ASSAY_REMARKS: APR_HepG2_CellLoss_1hr: Apredica 1-hour HepG2 Assay for Cell Loss (AID 2282668);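 note: curves fitted both ways against DMSO so gain or loss of cells counts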
MEASUREMENT_PARAMETERS: high-content imaging
Active and inactive are the calls of the source. Rule for the calls: active = hit-call score of the fitted dose curve at least 0.9, where 1 is the maximum; inactive = score below 0.9.

{"COMPOUND": "CS(=O)(=O)c1ccc(C(=O)C2C(=O)CCCC2=O)c([N+](=O)[O-])c1", "outcome": "inactive"}
{"COMPOUND": "CC1(C)C(C=C(Cl)Cl)C1C(=O)OC(C#N)c1cccc(Oc2ccccc2)c1 (stereo unspecified)", "outcome": "inactive"}
{"COMPOUND": "CC1(C)CON(Cc2ccccc2Cl)C1=O", "outcome": "inactive"}
{"COMPOUND": "CCOc1nc(F)cc2nc(S(=O)(=O)Nc3c(Cl)cccc3Cl)nn12", "outcome": "inactive"}
{"COMPOUND": "Cc1nc(N(C)C)nc(OC(=O)N(C)C)c1C", "outcome": "inactive"}
{"COMPOUND": "O=C1C2CC=CCC2C(=O)N1SC(Cl)(Cl)Cl (stereo unspecified)", "outcome": "inactive"}
{"COMPOUND": "CC(C)C1(C)N=C(c2ncccc2C(=O)O)NC1=O (stereo unspecified)", "outcome": "inactive"}
{"COMPOUND": "O=C(Nc1ccccc1-c1ccc(Cl)cc1)c1cccnc1Cl", "outcome": "inactive"}
{"COMPOUND": "CCNP(=S)(OC)O/C(C)=C/C(=O)OC(C)C (stereo unspecified)", "outcome": "inactive"}
{"COMPOUND": "CC(C)=CC1C(C(=O)OCc2coc(Cc3ccccc3)c2)C1(C)C (stereo unspecified)", "outcome": "inactive"}
{"COMPOUND": "Cc1cc(C)nc(Nc2ccccc2)n1", "outcome": "inactive"}
{"COMPOUND": "COP(=S)(OC)Oc1ccc([N+](=O)[O-])c(C)c1", "outcome": "inactive"}
{"COMPOUND": "Nc1cnn(-c2ccccc2)c(=O)c1Cl", "outcome": "inactive"}
{"COMPOUND": "CCNC(=O)NC(=O)C(C#N)=NOC", "outcome": "inactive"}
{"COMPOUND": "CCCCOCN(C(=O)CCl)c1c(CC)cccc1CC", "outcome": "inactive"}
{"COMPOUND": "CCN(CC)C(=O)C(C)Oc1cccc2ccccc12 (stereo unspecified)", "outcome": "inactive"}
{"COMPOUND": "COCC(C)N(C(=O)CCl)c1c(C)csc1C (stereo unspecified)", "outcome": "inactive"}
{"COMPOUND": "COc1ccc(-c2ccccc2)cc1NNC(=O)OC(C)C", "outcome": "inactive"}
{"COMPOUND": "CCOP(=S)(OCC)Oc1nc(Cl)n(C(C)C)n1", "outcome": "inactive"}
{"COMPOUND": "N#CN=C1SCCN1Cc1ccc(Cl)nc1", "outcome": "inactive"}
{"COMPOUND": "N#Cc1c(Cl)cccc1Cl", "outcome": "inactive"}
{"COMPOUND": "C=CCOC(=O)C(C)(C)OC(=O)c1cc(-n2c(=O)cc(C(F)(F)F)n(C)c2=O)ccc1Cl", "outcome": "inactive"}
{"COMPOUND": "O=P(O)(O)CCCl", "outcome": "inactive"}
{"COMPOUND": "COCc1cnc(C2=NC(C)(C(C)C)C(=O)N2)c(C(=O)O)c1 (stereo unspecified)", "outcome": "inactive"}
{"COMPOUND": "CCCC(=NOCC)C1=C(O)CC(CC(C)SCC)CC1=O (stereo unspecified)", "outcome": "inactive"}
{"COMPOUND": "CC(C)Nc1nc(Cl)nc(NC(C)C)n1", "outcome": "inactive"}
